The reported numbers originate from PubChem BioAssay (NCI).

Tested on: LOX IMVI melanoma
METHOD_DESCRIPTION: NCI tumour cell line growth inhibition, 48 h
MEASUREMENT_TYPE: log10 of TGI (log10 of the value in µM)
Quick note: numbers are log10 of TGI, with µM as the unit.

compound=CN1CCN(c2ccc(Nc3ncc(Cl)c(NC[C@@H]4CCCO4)n3)cc2)CC1 recorded_result=0.83

Proceeding to the next compound to report its log10 of TGI.
Exam item: Dear colleague, I am looking for the recorded log10 of TGI of the following compound: "COC(=O)c1cc2oc(/C=C3/SC(=S)N(NC(C)=O)C3=O)cc2n1C"
Marked response: 1.45
